- subject of test: human ether-à-go-go-related gene (hERG) potassium channel (human, UniProt Q12809)
- Sequence (Q12809 whole entry, looked up): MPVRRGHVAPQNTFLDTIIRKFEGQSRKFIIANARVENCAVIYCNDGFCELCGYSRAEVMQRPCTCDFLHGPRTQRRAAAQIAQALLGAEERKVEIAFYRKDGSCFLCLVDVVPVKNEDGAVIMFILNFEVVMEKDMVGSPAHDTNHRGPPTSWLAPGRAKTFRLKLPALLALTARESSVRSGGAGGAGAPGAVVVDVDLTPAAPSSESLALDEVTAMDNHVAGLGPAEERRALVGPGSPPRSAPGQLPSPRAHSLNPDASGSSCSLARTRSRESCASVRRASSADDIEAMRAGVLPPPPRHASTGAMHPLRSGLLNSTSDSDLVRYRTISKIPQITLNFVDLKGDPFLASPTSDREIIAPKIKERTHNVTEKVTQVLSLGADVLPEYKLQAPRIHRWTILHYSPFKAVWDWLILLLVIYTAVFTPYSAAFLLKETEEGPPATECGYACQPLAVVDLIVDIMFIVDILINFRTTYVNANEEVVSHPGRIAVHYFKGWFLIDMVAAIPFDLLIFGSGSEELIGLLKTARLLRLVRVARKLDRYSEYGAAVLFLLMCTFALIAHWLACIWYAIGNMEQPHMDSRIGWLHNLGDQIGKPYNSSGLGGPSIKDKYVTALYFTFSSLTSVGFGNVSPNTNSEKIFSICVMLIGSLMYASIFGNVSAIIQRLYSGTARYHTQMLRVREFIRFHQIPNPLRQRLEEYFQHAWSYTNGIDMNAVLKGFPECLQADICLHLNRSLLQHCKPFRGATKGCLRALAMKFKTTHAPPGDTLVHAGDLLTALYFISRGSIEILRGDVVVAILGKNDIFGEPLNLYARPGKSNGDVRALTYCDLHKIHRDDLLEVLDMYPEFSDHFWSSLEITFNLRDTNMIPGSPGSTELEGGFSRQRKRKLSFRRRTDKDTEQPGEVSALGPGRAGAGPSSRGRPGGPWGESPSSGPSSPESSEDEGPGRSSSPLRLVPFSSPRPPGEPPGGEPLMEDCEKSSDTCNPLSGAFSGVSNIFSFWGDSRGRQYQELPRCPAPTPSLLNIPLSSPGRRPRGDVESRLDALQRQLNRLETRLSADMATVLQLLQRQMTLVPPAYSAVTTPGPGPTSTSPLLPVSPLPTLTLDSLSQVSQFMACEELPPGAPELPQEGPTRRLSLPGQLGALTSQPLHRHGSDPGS
- protocol details: primary screen, population patch clamp on CHO cells stably expressing hERG; higher = less effect of the substance;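 also: peak tail current of the secondary pulse compared with the same well before compound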
The campaign covered roughly 310,000 compounds. About 14,000 (4.5%) showed an effect of 50% or more. The effect is printed as a negative number. The sample holds strong results, similar compounds and a random draw of the others, so the mix is not that of the screen.
hERG current change (%, negative = inhibition) at 10uM overview
value type: hERG current change (%, negative = inhibition) at 10uM

{"molecule": "Cc1ccccc1-c1nc(CS(=O)CC(=O)NCCN2CCOCC2)c(C)o1 (stereo not shown)", "result": "3.48%"}
{"molecule": "Cc1cc2nc(C3CCN(CC4COc5ccccc5O4)CC3)[nH]c2cc1C (stereo not shown)", "result": "-73.9%"}
{"molecule": "CC(=O)c1ccc(NC(=O)CO/N=C(\\C)c2cccs2)cc1", "result": "-8.22%"}
{"molecule": "CC(C)(C)c1ccc(/C=C(\\c2nc3ccccc3[nH]2)S(=O)(=O)c2ccccc2)cc1", "result": "0.84%"}

###

- subject of test: human ether-à-go-go-related gene (hERG) potassium channel (human)
- protocol details: primary screen, population patch clamp on CHO cells stably expressing hERG; higher = less effect of the substance
Out of some 310,000 compounds screened, about 14,000 (4.5%) showed an effect of 50% or more. The effect is printed as a negative number. This excerpt belongs to a sample that is enriched for strong results.
value type: hERG current change (%, negative = inhibition) at 10uM (%)

{"compound": "O=C(NC1CCN(Cc2ccccc2)CC1)c1ccc(CS(=O)c2ccc(F)cc2)o1 (stereo not drawn)", "number": -22.4}
{"compound": "NC(=O)c1ccsc1NC(=O)c1coc2ccccc2c1=O", "number": -2.56}
{"compound": "Cl.O=C(NC(=S)NC1CCN(Cc2ccccc2)CC1)c1ccc(F)cc1", "number": -72.3}
{"compound": "O=[N+]([O-])c1cccc(NNS(=O)(=O)c2ccccc2F)c1", "number": -29.4}
{"compound": "O=C(COC(=O)C1(c2ccc(F)cc2)CCCC1)NCc1ccco1", "number": -2.02}
{"compound": "CC(C)N1CCc2c(sc(NC(=O)c3ccc(C(=O)c4ccccc4)cc3)c2C(N)=O)C1.Cl", "number": -38.2}
{"compound": "COc1cccc(NC(=O)c2c(F)cccc2F)c1", "number": -6.78}
{"compound": "Cc1ccc(C)n1-c1ccc(C(=O)NC2CCN(Cc3ccccc3)CC2)cc1", "number": -65.5}
{"compound": "O=C(NC1CCN(Cc2ccc(F)cc2)CC1)c1ccccc1", "number": -50.2}
{"compound": "S=C(Nc1ccccc1)NC1CCN(Cc2ccccc2)CC1", "number": -39.6}
{"compound": "CC(C)(C)c1ccc(C(=O)NC2CCN(Cc3ccccc3)CC2)cc1", "number": -65.3}
{"compound": "CCOC(=O)N1CCC(NC(=O)C2CCCN(C(=O)c3cc4sccc4n3C)C2)CC1 (stereo not drawn)", "number": -5.34}
{"compound": "Cc1cc(C)c(C#N)c(SCc2ccccc2)n1", "number": 11.2}
{"compound": "CCC(C)(C(=O)NC1CCCCC1)N(C(=O)CNC(=O)c1ccccc1)c1c(C)n(C)n(-c2ccccc2)c1=O (stereo not drawn)", "number": 10.1}
{"compound": "CCOc1cc(CNCCO)ccc1OCC(=O)NC(C)(C)C.Cl", "number": 15.7}
{"compound": "CC(C)(C)C1CCc2c(sc(NC(=O)c3ccco3)c2C(N)=O)C1 (stereo not drawn)", "number": 19.8}
{"compound": "Cc1nn(-c2ccccc2)c(C)c1/C=N\\NS(=O)(=O)c1ccc(Cl)cc1", "number": -17.7}
{"compound": "O=C(NC1CCN(Cc2ccccc2)CC1)c1ccc2c(c1)[nH]c(=O)n2Cc1ccc(F)cc1", "number": -21.8}
{"compound": "CCN1CCc2c(sc(NC(=O)Cc3ccccc3)c2C(N)=O)C1.Cl", "number": -20.3}
{"compound": "CCOc1ccc2c(c1)-c1c(ssc1=S)C(C)(C)N2", "number": 4.44}
{"compound": "Cc1onc(-c2ccccc2)c1C(=O)NNC(=S)NC(=O)/C=C/c1ccccc1", "number": 16.2}
{"compound": "Cc1ccccc1C(=O)NC1CCN(Cc2ccccc2)CC1", "number": -29.1}
{"compound": "CCC(=O)N1CCN(c2ccc(NC(=O)c3ccc4c(c3)OCO4)cc2)CC1", "number": -0.905}
{"compound": "Cc1cc(C)nc(SCC(=O)NN)n1", "number": 21.1}
